Target: biotinylated SARS-CoV-2 S1 variant B.1.351 (Example 5) (SARS-CoV-2) (UniProt P0DTC2)
Test: phage ELISA screening
Items are presented alongside their recorded ELISA.
Form rule: numeric answer, no unit written next to it.

Binder	Quantity	Reported
12-6 (antibody, V domains shown) VH: QVQLVESGGGVVQPGRSLRLSCAASGFIFRNYAMHWVRQAPGKGLEWVAVISYDGSNKYYADSVKGRFTISRDNSKNTLYLQMNSLRAEDTAVYYCARPRGGSYHGAFDIWGQGTLVTVSS VL: EIVLTQSPATLSLSPGERATLSCRASQSLGNYLAWYQQKPGQAPRLLIYDSSNRATGIPARFSGSGSGTDFTLTISSLEPEDFAVYYCQQRNWPYTFGGGTKVEIK	ELISA	22.4
12-4 (antibody, V domains shown) VH: QVQLVESGGGVVQPGRSLRLSCAASGFTFSYYGMHWVRQAPGKGLEWVAVISYDGTNDYYADSVKGRFTISRDNSKNTLYLQMNSLRAEDTAVYYCAKPHSGSYRGYFDYWGQGTLVTVSS VL: EIVLTQSPATLSLSPGERATLSCRASQSVGSHLAWYQQKPGQAPRLLIYDASNRATGIPARFSGSGSGTDFTLTISSLEPEDFAVYYCQQISNWPLTFGGGTKVEIK	ELISA	23.5
12-39 (antibody, V domains shown) VH: QVQLVESGGGVVQPGRSLRLSCAASGFTFSSYAMHWVRQAPGKGLEWVAVISYDGNHEYYADSVKGRFTISRDNSKNTLYLQMNSLRAEDTAVYYCARAHSGSYFSHFDYWGQGTLVTVSS VL: EIVLTQSPATLSLSPGERATLSCRASESISTYLAWYQQKPGQAPRLLIYDASNRATGIPARFSGSGSGTDFTLTISSLEPEDLAVYYCQQRRNSLTFGGGTKVEIK	ELISA	5.09
12-5 (antibody, V domains shown) VH: QVQLVESGGGVVQPGRSLRLSCAASGFTFSYYGMHWVRQAPGKGLEWVAVTSYDGSNKYYSDSVKGRFTISRDNSKNTLYLQMNSLRAEDTAVYYCARPKSGSYATYFDYWGQGTLVTVSS VL: EIVLTQSPATLSLSPGERATLSCRASQNVGQSLAWYQQKPGQAPRLLIYDASNRATGIPARFSGSGSGTDFTLTISSLEPEDFAVYYCQQRENWPPTFGGGTKVEIK	ELISA	22.8

Would you kindly look at the next entry?
Given item 12-43 (antibody, V domains shown) VH: QVQLVESGGGVVQPGRSLRLSCAASGFIFSSYGMHWVRQAPGKGLEWVAVISYDGSNEYYADSVKGRFTISRDNSKNTLYLQMNSLRAEDTAVYYCARPRSGSYLSAFDYWGQGTLVTVSS VL: EIVLTQSPATLSLSPGERATLSCRASQSVGKSLAWYQQKPGQAPRLLIYDTSNRATGIPARFSGSGSGTDFTLTISSLEPEDFAVYYCQQRGSFPLTFGGGTKVEIK , the value recorded as its ELISA is 4.82

Source of measurements: patent US20230192818A1
